Reference for the values: the NIST ThermoML archive (doi:10.1021/je700640r)

- assay-explanation: activity coefficient (dimensionless); of the first substance listed, at infinite dilution; xn = mol fraction of the nth substance listed
- assay-setup: 323.15 K; Liquid; Chromatography; x1 = 0
reported-metric: activity coefficient
Answer with a bare number; do not write a unit.

Solved cases (4 shown):
CC(C)O [propan-2-ol] + CCC[n+]1ccn(C)c1C.F[B-](F)(F)F ... 2.45
CCOC(C)=O [ethyl acetate] + CCC[n+]1ccn(C)c1C.F[B-](F)(F)F ... 8.79
CC(C)=O [acetone] + CCC[n+]1ccn(C)c1C.F[B-](F)(F)F ... 2.55
CO [methanol] + CCC[n+]1ccn(C)c1C.F[B-](F)(F)F ... 0.823

Please look at the following molecule next.
Quote activity coefficient reported for ClC(Cl)(Cl)Cl [tetrachloromethane] + CCC[n+]1ccn(C)c1C.F[B-](F)(F)F please.
9.13

---

- assay-explanation: activity coefficient (dimensionless); of the first substance listed, at infinite dilution; xn = mol fraction of the nth substance listed
- assay-setup: 353.15 K; Liquid; Chromatography; x1 = 0
Below, each entry is listed with its recorded activity coefficient.
Answer with a bare number; do not write a unit.

Solved cases (3 shown):
CO [methanol] + CCC[n+]1ccn(C)c1C.F[B-](F)(F)F ... 0.684
C1COCCO1 [1,4-dioxane] + CCC[n+]1ccn(C)c1C.F[B-](F)(F)F ... 3.29
CCCO [propan-1-ol] + CCC[n+]1ccn(C)c1C.F[B-](F)(F)F ... 2.19

Quote activity coefficient reported for CCO [ethanol] + CCC[n+]1ccn(C)c1C.F[B-](F)(F)F please.
1.35

Quote activity coefficient reported for CC(C)O [propan-2-ol] + CCC[n+]1ccn(C)c1C.F[B-](F)(F)F please.
2.04

---

- assay-explanation: activity coefficient (dimensionless); of the first substance listed, at infinite dilution; xn = mol fraction of the nth substance listed
- assay-setup: 303.15 K; Liquid; Chromatography; x1 = 0
# note: exactly 4 is not below, so it is FALSE; use TRUE for activity coefficient strictly under it

Known results for compounds:
CCC(C)O (stereo unspecified) [butan-2-ol] + CCC[n+]1ccn(C)c1C.F[B-](F)(F)F ... FALSE
C1CCOC1 [tetrahydrofuran] + CCC[n+]1ccn(C)c1C.F[B-](F)(F)F ... FALSE
ClC(Cl)Cl [trichloromethane] + CCC[n+]1ccn(C)c1C.F[B-](F)(F)F ... TRUE
CC(C)O [propan-2-ol] + CCC[n+]1ccn(C)c1C.F[B-](F)(F)F ... TRUE
CC(C)CO [2-methyl-1-propanol] + CCC[n+]1ccn(C)c1C.F[B-](F)(F)F ... FALSE

activity coefficient under 4? Item: CCCO [propan-1-ol] + CCC[n+]1ccn(C)c1C.F[B-](F)(F)F
TRUE

---

- assay-explanation: activity coefficient (dimensionless); of the first substance listed, at infinite dilution; xn = mol fraction of the nth substance listed
- assay-setup: 333.15 K; Liquid; Chromatography; x1 = 0
reported-metric: activity coefficient
Answer with a bare number; do not write a unit.

CO [methanol] + CCC[n+]1ccn(C)c1C.F[B-](F)(F)F ... 0.777
CC(C)=O [acetone] + CCC[n+]1ccn(C)c1C.F[B-](F)(F)F ... 2.61

Please look at the following molecule next.
Quote activity coefficient reported for C1CCOC1 [tetrahydrofuran] + CCC[n+]1ccn(C)c1C.F[B-](F)(F)F please.
5.92

---

Below, each entry is listed with its recorded activity coefficient.
- assay-explanation: activity coefficient (dimensionless); of the first substance listed, at infinite dilution; xn = mol fraction of the nth substance listed
- assay-setup: 343.15 K; Liquid; Chromatography; x1 = 0
Answer with a bare number; do not write a unit.

CCC(C)O (centres undefined) [butan-2-ol] + CCC[n+]1ccn(C)c1C.F[B-](F)(F)F ... 2.87
CO [methanol] + CCC[n+]1ccn(C)c1C.F[B-](F)(F)F ... 0.713
CC(C)CO [2-methyl-1-propanol] + CCC[n+]1ccn(C)c1C.F[B-](F)(F)F ... 2.62
CCCCCO [pentan-1-ol] + CCC[n+]1ccn(C)c1C.F[B-](F)(F)F ... 4.05
CCCO [propan-1-ol] + CCC[n+]1ccn(C)c1C.F[B-](F)(F)F ... 2.37
CC(C)O [propan-2-ol] + CCC[n+]1ccn(C)c1C.F[B-](F)(F)F ... 2.21

Quote activity coefficient reported for C1CCOC1 [tetrahydrofuran] + CCC[n+]1ccn(C)c1C.F[B-](F)(F)F please.
5.88

Quote activity coefficient reported for CC(C)=O [acetone] + CCC[n+]1ccn(C)c1C.F[B-](F)(F)F please.
2.66

Quote activity coefficient reported for CC#N [acetonitrile] + CCC[n+]1ccn(C)c1C.F[B-](F)(F)F please.
1.36

---

- assay-explanation: activity coefficient (dimensionless); of the first substance listed, at infinite dilution; xn = mol fraction of the nth substance listed
- assay-setup: 353.15 K; Liquid; Chromatography; x1 = 0
# note: exactly 4 is not below, so it is False; use True for activity coefficient strictly under it

Known results for compounds:
ClC(Cl)(Cl)Cl [tetrachloromethane] + CCC[n+]1ccn(C)c1C.F[B-](F)(F)F ... False
C1CCOC1 [tetrahydrofuran] + CCC[n+]1ccn(C)c1C.F[B-](F)(F)F ... False
CCCCCO [pentan-1-ol] + CCC[n+]1ccn(C)c1C.F[B-](F)(F)F ... True
CC(C)CCO [3-methylbutan-1-ol] + CCC[n+]1ccn(C)c1C.F[B-](F)(F)F ... True
CCCCO [butan-1-ol] + CCC[n+]1ccn(C)c1C.F[B-](F)(F)F ... True

activity coefficient under 4? Item: CC(C)CO [2-methyl-1-propanol] + CCC[n+]1ccn(C)c1C.F[B-](F)(F)F
True

activity coefficient under 4? Item: CCC(C)O (configuration not stated) [butan-2-ol] + CCC[n+]1ccn(C)c1C.F[B-](F)(F)F
True

activity coefficient under 4? Item: CC#N [acetonitrile] + CCC[n+]1ccn(C)c1C.F[B-](F)(F)F
True

activity coefficient under 4? Item: CCOC(C)=O [ethyl acetate] + CCC[n+]1ccn(C)c1C.F[B-](F)(F)F
False

activity coefficient under 4? Item: ClCCl [dichloromethane] + CCC[n+]1ccn(C)c1C.F[B-](F)(F)F
True

activity coefficient under 4? Item: CC(C)=O [acetone] + CCC[n+]1ccn(C)c1C.F[B-](F)(F)F
True

activity coefficient under 4? Item: ClC(Cl)Cl [trichloromethane] + CCC[n+]1ccn(C)c1C.F[B-](F)(F)F
True
